The measurements presented in this section are drawn from patent US20250313627A1.

- Measured On: T1, human ROR1 (Receptor Tyrosine Kinase-Like Orphan Receptor 1) on the cell surface (human, UniProt Q01973 30-937)
- T1 construct: whole, on cells; engineered into B16-F10 (high density) and LS174T (low density) cells; also called B16-F10-ROR1-H; LS174T-ROR1-L
- Assay Text: flow cytometry, LS174T cells expressing human ROR1 (low density)
Quick reference: MFI of the listed items.
Give your answer as a number; write no unit.

Some entries whose results are on file:
{"Binder": "FUSE-662 - h2A11-HK2-16-N84S Fc (Fc fusion, VHH-Fc format; not shown: Fc of the VHH-Fc format) EVQLLESGGGLVQPGGSLRLSCAASGVGYSANCMGWFRQAPGKDRELASMSIRSGRTYYADSVKGRFTISRDSSKNTLYLQMSSLKAEDTAVYYCAAAYGGSRCVYNYRGQGTLVTVSS", "MFI": 4350}
{"Binder": "FUSE-179 (5A1 VHH-human-Fc fusion protein) (Fc fusion, VHH-human-Fc fusion; non-humanized 5A1; not shown: human Fc) QVQLQESGGGSVQAGGSLKLSCTASGYTNRLKCMGWFRQAPGKEREEIATISTGTGNTYYADSVKGRFTFSQDKVKNTVYLQMNTLKPDDTGMYYCAADVRPDGTTCHYNSGGQGTQVTVSS", "MFI": 836}
{"Binder": "FUSE-655 - h5A1-FA9-HK6-N84S Fc (Fc fusion, VHH-Fc format; not shown: Fc of the VHH-Fc format) EVQLLESGGGLVPRGGSLRLSCTASGYTNRLKCMGWFRQAPGKEREEIASISTGTGNTYYADSVKGRFTISQDKSRNTLYLQMSSLKAEDTAVYYCAADVRPRGTTCHYNSRGQGTQVTVSS", "MFI": 4010}

So, FUSE-654 - h5A1-FA9-HK6-R19K Fc (Fc fusion, VHH-Fc format; not shown: Fc of the VHH-Fc format) EVQLLESGGGLVPRGGSLKLSCTASGYTNRLKCMGWFRQAPGKEREEIASISTGTGNTYYADSVKGRFTISQDKSRNTLYLQMNSLKAEDTAVYYCAADVRPRGTTCHYNSRGQGTQVTVSS ? Its MFI was 4560

So, FUSE-661 - h2A11-HK2-3-N84S Fc (Fc fusion, VHH-Fc format; not shown: Fc of the VHH-Fc format) EVQLLESGGGLVQPGGSLRLSCAASGSQRSANCMGWFRQAPGKDRELASMSIRSGRTYYADSVKGRFTISRDSSKNTLYLQMSSLKAEDTAVYYCAAAYGGSRCVYNYRGQGTLVTVSS ? Its MFI was 4880

So, FUSE-559 (h5A1-FA9-HK1 Fc) (Fc fusion, VHH-Fc format; also called humanized clone 5A1-FA9-HK1; not shown: Fc of the VHH-Fc format) EVQLLESGGGLVQPGGSLRLSCTASGYTNRLKCMGWFRQAPGKEREEIASISTGTGNTYYADSVKGRFTISRDKSRNTLYLQMNTLRAEDTAVYYCAADVRPHGTTCHYNSRGQGTQVTVSS ? Its MFI was 3120

So, FUSE-112 (2A11 VHH-human-Fc fusion protein) (Fc fusion, VHH-human-Fc fusion; non-humanized 2A11; also called 2A11-Fc; not shown: human Fc) QVQLQESGGGSVPAGGSLRLSCAASGSTYSANCMGWFRQAPGKEREEVASMSIRSGRTYYSDSVKGRFTISQDGSKNTLYLQLNSLKAEDTALYYCAAAYGGSRCVYNYRGQGTQVTVSS ? Its MFI was 4340
